Hi, quick share: literature Ki data for UniProt P35375, several sources combined.
Sequence (P35375 whole entry): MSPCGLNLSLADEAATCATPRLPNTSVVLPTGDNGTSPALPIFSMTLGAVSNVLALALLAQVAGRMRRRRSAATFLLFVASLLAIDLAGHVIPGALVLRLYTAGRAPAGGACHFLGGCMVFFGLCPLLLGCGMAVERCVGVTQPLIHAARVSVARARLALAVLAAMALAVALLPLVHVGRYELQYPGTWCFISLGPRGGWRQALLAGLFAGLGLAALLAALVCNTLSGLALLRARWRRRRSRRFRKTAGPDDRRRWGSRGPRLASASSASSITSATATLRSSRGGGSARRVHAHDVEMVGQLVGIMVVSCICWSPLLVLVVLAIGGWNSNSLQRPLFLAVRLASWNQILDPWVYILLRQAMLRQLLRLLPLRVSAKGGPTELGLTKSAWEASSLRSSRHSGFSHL
Condition met if Ki is below 0.006 µM. Condition not met if not; exact matches included in Condition not met.

Compound	System Under Test	Label Class
Cc1cc(Br)ccc1S(=O)(=O)NC[C@H]1CC=CC[C@@H]1/C=C\CCCC(=O)O	UniProt P35375	Condition met
Cc1ccc(S(=O)(=O)N(CC(C)C)c2cc(C)c(C)cc2OCc2ccc(C(=O)O)cc2)o1	UniProt P35375	Condition met
Cc1cc(Br)ccc1S(=O)(=O)NC[C@H]1C2CCC(CC2)[C@H]1/C=C\CCCC(=O)O	UniProt P35375	Condition met
CCC1([C@@H](O)C/C=C/[C@@H]2[C@@H](CCCCCCC(=O)O)[C@H](Cl)C[C@H]2O)CCC1	UniProt P35375	Condition not met
CCCC1(C(O)C/C=C/[C@H]2[C@H](O)CC(=O)[C@@H]2C/C=C\CCCC(=O)O)CCC1 (some centres unmarked)	UniProt P35375	Condition not met
COCc1cccc(C[C@H](O)/C=C/[C@@H]2[C@@H](CCSCCCC(=O)O)[C@H](Cl)C[C@H]2O)c1	UniProt P35375	Condition not met
C=CCC1(C(O)C/C=C/[C@H]2[C@H](O)CC(=O)[C@@H]2CCc2ccc(C(=O)O)cc2)CCC1 (single isomer, unassigned)	UniProt P35375	Condition not met
C=C1C[C@@H](O)[C@H](/C=C/CC(O)C2(CCC)CCC2)[C@H]1C/C=C\CCCC(=O)O (some centres unmarked)	UniProt P35375	Condition not met

Below: the item to evaluate.
Consider CCCCC(C)(C)[C@@H](/C=C/[C@H]1[C@H](OC)CC(=O)[C@@H]1C/C=C\CCCC(=O)O)OC . Does its Ki lie strictly below 0.006 µM?
Condition not met
